# Subject Of Test: wild-type human cardiac sodium channel, hNav1.5 (Homo sapiens, UniProt Q14524)
# Sequence (Q14524 whole entry): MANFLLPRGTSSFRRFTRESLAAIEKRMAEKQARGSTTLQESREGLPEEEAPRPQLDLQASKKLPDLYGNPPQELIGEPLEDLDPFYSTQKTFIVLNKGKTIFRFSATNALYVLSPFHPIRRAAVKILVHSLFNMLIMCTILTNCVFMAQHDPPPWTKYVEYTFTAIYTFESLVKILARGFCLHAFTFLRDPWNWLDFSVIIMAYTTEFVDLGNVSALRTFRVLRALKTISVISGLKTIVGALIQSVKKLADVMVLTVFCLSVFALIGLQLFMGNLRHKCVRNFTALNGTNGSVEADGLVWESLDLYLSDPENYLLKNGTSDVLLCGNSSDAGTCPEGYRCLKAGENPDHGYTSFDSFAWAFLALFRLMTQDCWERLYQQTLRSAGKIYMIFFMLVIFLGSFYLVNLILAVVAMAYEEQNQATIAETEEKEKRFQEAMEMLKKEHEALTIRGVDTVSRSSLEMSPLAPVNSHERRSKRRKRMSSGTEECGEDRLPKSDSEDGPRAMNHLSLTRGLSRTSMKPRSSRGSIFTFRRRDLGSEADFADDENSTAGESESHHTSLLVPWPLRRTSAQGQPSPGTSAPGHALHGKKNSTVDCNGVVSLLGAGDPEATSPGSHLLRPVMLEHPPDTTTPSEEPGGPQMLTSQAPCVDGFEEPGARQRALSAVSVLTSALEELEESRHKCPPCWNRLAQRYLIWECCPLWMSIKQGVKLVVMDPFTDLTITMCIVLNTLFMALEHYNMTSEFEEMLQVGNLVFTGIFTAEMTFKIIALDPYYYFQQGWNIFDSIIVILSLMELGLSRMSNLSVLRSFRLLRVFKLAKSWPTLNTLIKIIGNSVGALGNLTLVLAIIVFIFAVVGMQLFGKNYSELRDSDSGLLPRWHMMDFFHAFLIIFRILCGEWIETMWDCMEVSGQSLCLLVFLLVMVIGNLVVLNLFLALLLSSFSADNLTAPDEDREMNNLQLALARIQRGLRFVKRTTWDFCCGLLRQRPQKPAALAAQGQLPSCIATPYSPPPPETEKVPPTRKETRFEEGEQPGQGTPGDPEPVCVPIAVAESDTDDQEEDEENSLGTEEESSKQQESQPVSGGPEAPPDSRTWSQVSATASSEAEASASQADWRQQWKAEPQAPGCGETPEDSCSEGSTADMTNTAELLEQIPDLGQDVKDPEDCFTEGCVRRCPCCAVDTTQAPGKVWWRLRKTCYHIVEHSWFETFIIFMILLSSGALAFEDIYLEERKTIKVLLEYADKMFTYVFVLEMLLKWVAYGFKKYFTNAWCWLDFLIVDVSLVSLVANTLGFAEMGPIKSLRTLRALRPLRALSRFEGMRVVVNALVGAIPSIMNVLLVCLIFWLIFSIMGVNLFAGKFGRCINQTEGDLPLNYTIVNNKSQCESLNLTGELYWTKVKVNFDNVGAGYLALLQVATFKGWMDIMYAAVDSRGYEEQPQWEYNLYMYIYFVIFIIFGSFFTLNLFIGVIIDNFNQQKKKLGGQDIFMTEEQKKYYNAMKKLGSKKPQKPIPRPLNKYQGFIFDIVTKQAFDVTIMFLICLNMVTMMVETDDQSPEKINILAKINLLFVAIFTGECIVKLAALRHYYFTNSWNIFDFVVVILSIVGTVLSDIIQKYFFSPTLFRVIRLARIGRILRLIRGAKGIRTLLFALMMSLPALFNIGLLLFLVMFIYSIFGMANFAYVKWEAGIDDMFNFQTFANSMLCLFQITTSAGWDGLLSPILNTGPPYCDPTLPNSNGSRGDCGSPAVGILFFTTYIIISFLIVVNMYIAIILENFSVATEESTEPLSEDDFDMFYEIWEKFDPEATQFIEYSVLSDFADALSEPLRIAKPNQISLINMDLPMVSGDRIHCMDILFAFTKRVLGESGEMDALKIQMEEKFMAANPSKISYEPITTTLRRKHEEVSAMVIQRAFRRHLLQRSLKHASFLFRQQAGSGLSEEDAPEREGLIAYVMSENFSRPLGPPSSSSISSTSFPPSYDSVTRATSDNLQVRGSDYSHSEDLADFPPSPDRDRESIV
# Test Details: Late INa screening assay (QPatch whole cell patch clamp, tefluthrin-enhanced late sodium current)
# Format: cell-based
# Condition Info: HEK293 hNav1.5, late INa activated with 10 μM Tefluthrin
# Protocol: The late sodium current (Late INa) and peak sodium current (Peak INa) assays are performed on an automated electrophysiology platform, QPatch 16X (Sophion Bioscience, Copenhagen, Denmark), which uses the whole cell patch clamp technique to measure currents through the cell membrane of up to 16 cells at a time. The assay uses an HEK293 (human embryonic kidney) cell line heterologously expressing the wild-type human cardiac sodium channel, hNav1.5, purchased from Millipore (Billerica, Mass.). […]
Each entry below carries its recorded inhibition at 1 µM.

Q) Give the measured inhibition at 1 µM for `O=C1CCCN1C1CCN(C2=NCCOc3ccc(-c4ccc(C(F)(F)F)cc4)cc32)CC1`
A) 9%

Q) Give the measured inhibition at 1 µM for `FC(F)(F)Oc1ccc(-c2ccc3c(c2)-c2nccn2CCO3)cc1`
A) 31%

Q) Give the measured inhibition at 1 µM for `N[C@@H]1CCN(C2=NCCOc3ccc(-c4ccc(C(F)(F)F)cc4)cc32)C1`
A) 6%

Q) Give the measured inhibition at 1 µM for `FC(F)(F)c1ccc(-c2ccc3c(c2)C(NCc2ncccn2)=NCCO3)cc1`
A) 14%

Q) Give the measured inhibition at 1 µM for `CC(C)(C)OC(=O)N1CC[C@@H](NC2=NCCOc3ccc(-c4ccc(C(F)(F)F)cc4)cc32)C1`
A) 51%

Q) Give the measured inhibition at 1 µM for `FC(F)(F)c1ccc(-c2ccc3c(c2)-c2nncn2CCO3)cc1`
A) 13%

Q) Give the measured inhibition at 1 µM for `Cc1cnc2n1CCOc1ccc(-c3ccc(C(F)(F)F)cc3)cc1-2`
A) 28%

Q) Give the measured inhibition at 1 µM for `FC(F)(F)c1ccc(-c2ccc3c(c2)-c2ncc(Cc4ccccc4)n2CCO3)cc1`
A) 13%

Q) Give the measured inhibition at 1 µM for `CC(=O)c1cnc2n1CCOc1ccc(-c3ccc(C(F)(F)F)cc3)cc1-2`
A) 12%

Q) Give the measured inhibition at 1 µM for O=C(c1ncccn1)N1CCC(NC2=NCCOc3ccc(-c4ccc(C(F)(F)F)cc4)cc32)C1 (centres unmarked)
A) 4%

Q) Give the measured inhibition at 1 µM for `CC(C)(C)OC(=O)NC1CN(C2=NCCOc3ccc(-c4ccc(C(F)(F)F)cc4)cc32)C1`
A) 9%

Q) Give the measured inhibition at 1 µM for `CC(C)(C)OC(=O)N[C@H]1CCN(C2=NCCOc3ccc(-c4ccc(C(F)(F)F)cc4)cc32)C1`
A) 15%

Q) Give the measured inhibition at 1 µM for `FC(F)(F)c1ccc(-c2ccc3c(c2)C(NCCOc2ccccc2Cl)=NCCO3)cc1`
A) 26%

Q) Give the measured inhibition at 1 µM for `FC(F)(F)c1ccc(-c2ccc3c(c2)C(NCC2CC2)=NCCO3)cc1`
A) 41%

Q) Give the measured inhibition at 1 µM for `O=C1CCCN1C1=NCCOc2ccc(-c3ccc(C(F)(F)F)cc3)cc21`
A) 10%

Q) Give the measured inhibition at 1 µM for CC(C)(C)OC(=O)N1CCC(NC2=NCCOc3ccc(-c4ccc(C(F)(F)F)cc4)cc32)C1 (centres unmarked)
A) 43%

----------
Each entry below carries its recorded inhibition at 1 µM.
# Subject Of Test: hNav1.5 Peak INa (Homo sapiens, UniProt Q14524)
# Sequence (Q14524 whole entry): as above
# Test Details: Peak INa screening assay (tonic block and use-dependent block)
# Type: cell-based
# Condition Info: at 1 μM; 3 Hz stimulation; holding potential −100 mV; read-out: Peak UDB (use-dependent block of peak INa) % Inhibition
Answer in %, number only, no unit symbol.

CN(C)[C@H]1CCN(C2=NCCOc3ccc(-c4ccc(C(F)(F)F)cc4)cc32)C1 [II-15] = 27
FC(F)(F)c1ccc(-c2ccc3c(c2)C(NCCOc2ccccn2)=NCCO3)cc1 [II-20] = 89
CC(C)(C)OC(=O)N1CC[C@@H](NC2=NCCOc3ccc(-c4ccc(C(F)(F)F)cc4)cc32)C1 [II-63] = 31
FC(F)(F)c1ccc(-c2ccc3c(c2)C(NCc2ccccc2)=NCCO3)cc1 [II-2] = 57
FC(F)(F)c1ccc(-c2ccc3c(c2)C(NCC2CC2)=NCCO3)cc1 [II-11] = 31
FC(F)(F)c1ccc(-c2ccc3c(c2)C(N2CCC(c4ccccn4)C2)=NCCO3)cc1 (stereo not drawn) [II-60] = 25

Q) Give the measured inhibition at 1 µM for FC(F)(F)c1ccc(-c2ccc3c(c2)C(NCCOc2ccccc2)=NCCO3)cc1 [II-22]
A) 69

Q) Give the measured inhibition at 1 µM for CC(C)(C)OC(=O)N1CCC(NC2=NCCOc3ccc(-c4ccc(C(F)(F)F)cc4)cc32)C1 (stereo not drawn) [II-62]
A) 32

Q) Give the measured inhibition at 1 µM for CC(C)(C)OC(=O)N1CC[C@H](NC2=NCCOc3ccc(-c4ccc(C(F)(F)F)cc4)cc32)C1 [II-43]
A) 31

----------
# Subject Of Test: UniProtKB Q14524
# Test Details: Late INa screening assay (QPatch whole cell patch clamp, tefluthrin-enhanced late sodium current)
# Assay type: cell-based
# Condition Info: HEK293 hNav1.5, late INa activated with 10 μM Tefluthrin
Each entry below carries its recorded inhibition at 1 µM.
Answer in %, number only, no unit symbol.

Cc1cnc2n1CCOc1ccc(-c3ccc(OC(F)(F)F)cc3)cc1-2 = 14
Cn1cncc1-c1cn2c(n1)-c1cc(-c3ccc(C(F)(F)F)cc3)ccc1OCC2 = 3
FC(F)(F)c1ccc(-c2ccc3c(c2)-c2nc(C4CC4)cn2CCO3)cc1 = 12
FC(F)(F)c1ccc(-c2ccc3c(c2)-c2ncc(C4CC4)n2CCO3)cc1 = 4
CN(C(=O)OC(C)(C)C)[C@H]1CCN(C2=NCCOc3ccc(-c4ccc(C(F)(F)F)cc4)cc32)C1 = 18
CN(C1=NCCOc2ccc(-c3ccc(C(F)(F)F)cc3)cc21)C1CC1 = 13
CC(C)(O)c1cnc2n1CCOc1ccc(-c3ccc(C(F)(F)F)cc3)cc1-2 = 10
CCN(CC)[C@H]1CCN(C2=NCCOc3ccc(-c4ccc(C(F)(F)F)cc4)cc32)C1 = 24
FC(F)(F)c1ccc(-c2ccc3c(c2)-c2nnc(C4CC4)n2CCO3)cc1 = 18
CC(C)(C)OC(=O)N1CC[C@H](NC2=NCCOc3ccc(-c4ccc(C(F)(F)F)cc4)cc32)C1 = 46

Q) Give the measured inhibition at 1 µM for FC(F)(F)c1ccc(-c2ccc3c(c2)C(N2CCC(c4ccccn4)C2)=NCCO3)cc1 (stereo not drawn)
A) 42

Q) Give the measured inhibition at 1 µM for `FC(F)(F)Oc1ccc(-c2ccc3c(c2)-c2ncc(C4CC4)n2CCO3)cc1`
A) 20

----------
# Subject Of Test: wild-type human cardiac sodium channel, hNav1.5 (Homo sapiens, UniProt Q14524)
# Test Details: Late INa screening assay (QPatch whole cell patch clamp, tefluthrin-enhanced late sodium current)
# Assay type: cell-based
# Condition Info: HEK293 hNav1.5, late INa activated with 10 μM Tefluthrin
Entry flag: Criterion met if inhibition at 1 µM reaches 20%; Criterion not met if it does not.

Consider the worked cases shown below.
FC(F)(F)c1ccc(-c2ccc3c(c2)C(N2CCN(C4CC4)CC2)=NCCO3)cc1 = Criterion met
FC(F)(F)c1ccc(-c2ccc3c(c2)-c2ncc(Cl)n2CCO3)cc1 = Criterion not met
N[C@H]1CCN(C2=NCCOc3ccc(-c4ccc(C(F)(F)F)cc4)cc32)C1 = Criterion not met
FC1(F)CCN(C2=NCCOc3ccc(-c4ccc(C(F)(F)F)cc4)cc32)CC1 = Criterion not met
FC(F)(F)CNC1=NCCOc2ccc(-c3ccc(C(F)(F)F)cc3)cc21 = Criterion not met
Cc1cn2c(n1)-c1cc(-c3ccc(C(F)(F)F)cc3)ccc1OCC2 = Criterion not met
FC(F)(F)c1ccc(-c2ccc3c(c2)C(N2CCC(N4CCCC4)C2)=NCCO3)cc1 (stereo not drawn) = Criterion not met
FC(F)(F)c1ccc(-c2ccc3c(c2)C(NCCOc2ccccn2)=NCCO3)cc1 = Criterion met

Q) # bool: inhibition at 1 µM of `FC(F)(F)c1ccc(-c2ccc3c(c2)C(Nc2cccc(C(F)(F)F)n2)=NCCO3)cc1` >= 20%
A) Criterion not met

Q) # bool: inhibition at 1 µM of `FC(F)(F)c1ccc(-c2ccc3c(c2)C(N2CCOCC2)=NCCO3)cc1` >= 20%
A) Criterion met

Q) # bool: inhibition at 1 µM of `CN[C@H]1CCN(C2=NCCOc3ccc(-c4ccc(C(F)(F)F)cc4)cc32)C1` >= 20%
A) Criterion not met

Q) # bool: inhibition at 1 µM of `FC(F)(F)c1ccc(-c2ccc3c(c2)C2=NCCCN2CCO3)cc1` >= 20%
A) Criterion not met

Q) # bool: inhibition at 1 µM of `FC(F)(F)c1ccc(-c2ccc3c(c2)C(Nc2nnn[nH]2)=NCCO3)cc1` >= 20%
A) Criterion not met

Q) # bool: inhibition at 1 µM of `FC(F)(F)c1ccc(-c2ccc3c(c2)-c2ncc(-c4ncccn4)n2CCO3)cc1` >= 20%
A) Criterion not met

Q) # bool: inhibition at 1 µM of `CN(C(=O)OC(C)(C)C)[C@@H]1CCN(C2=NCCOc3ccc(-c4ccc(C(F)(F)F)cc4)cc32)C1` >= 20%
A) Criterion not met

Q) # bool: inhibition at 1 µM of `CN1CCN(C2=NCCOc3ccc(-c4ccc(C(F)(F)F)cc4)cc32)CC1` >= 20%
A) Criterion not met
